- ASSAY_COMMENT: yeast display, Sf9 membrane polyspecificity reagent, FACS + sequencing; frameworks hold sequencing errors
READOUT_LABEL: polyreactivity (PSR sort gate)

QVQLVESGGGLVQAGGSLRLSCAASGRIFGVYAMGWYRQAPGKERELVAAIDRRGGRTYYADSVKGRFTISRDNAKNTVYLQMNSLKPEDTAVYYCATARYRAEMGYWGQGTQVTVSS
high polyreactivity
QVQLVESGGGLVQAGGSLRLSCAASGRIFYRNAMGWYRKAPGKEREWVAAISSSAGSTFYADSVKGRFTISRDNSKNTVYLQMNSLKPEDTAVYYCAAGSGTFVTRYRYGYWGQGTQVTVSS
high polyreactivity
QVLLVVSGGGLVQAGGSLRLSCAASGFTFDTYAMGWNRQAPGKERELVAVITRGGSTNYADSVNGRFTISRDNAKNTVYLQMNSLKPEDTALYFCAAEHRNTYTFARDYYWGQGTQVTVSS
high polyreactivity
QVHLVESGGGLVQAGGSLRLSCDASGSIFASNTMGWYRQEPGQERELVAGITKIGSSTYYADSVKGRFTISRDHAKNTVYLKMNSLTPEDTAVYYCNAYGPNIYSSRYEYWGQGTQVTVSS
low polyreactivity
QVQLVESGGGLVQAGGSLRLSCAASGSTFTHYAMGWYRQAPGKERELVAAISWGGGTTRYADSVKGRFTISRDNAKNTVYLQMNSLKPEDTAVYYCAAYRTHGPPRAIRFDYWGQGTQVTVSS
high polyreactivity
QVQLVESGGGLVQAGGSLRLSCAASGRIFPSNAMGWYRQAPGKERELVAAISFSGGSTYYADSVKGRFTISRDNAKNTVYLQMNSLKPEDTAVYYCAKSGVVDWGQGTQVTVSS
low polyreactivity
QVQLVESGGGLVQAGGSLRLSCAASGRTFPRNAMGWYRQAPGKERELVAAISYGGGRTYYADSVKGRFTISRDYAKNTVYLQMNSLKPEDTAVYYCATVRRTDYPLGMDYWGHGTQVTVSS
high polyreactivity
QVQLVESGGGLVQAGGSLRLSCAASGFIFSTNFMGWYRQAPGKERELVADINTGGSTSYADSVKGRFTISRDNAKNTVYLQMNSLKPEDTAVYYCAAVLQYYYLSTDDPYDYWGQGTQVTVSS
low polyreactivity
QVQLVESGGGLVQAGGSLRLSCAASGLILVGNTMGWYRQAPGKERELVATITSGGRTYYADSVKGRFTISRDNAKNTVYLQMNSLKPEDTAVYYCAKRAFSYVGGQQDRKENYYYWGQGTQVTVSS
high polyreactivity
QVHLVESGGGLVQAGGSLRLSCAASGRTFDLNVMGWYRQAPGKERELVAAISFSGGSTYYADSVKGRFTISRDNAKNTVYLQMNSLKPEDTAVYYCSADEYSADSVPSWYDYWGQGTQVTVSS
high polyreactivity
QVQLVESGGGLVQAGGRLRLSCAAYGSIFDFYAMGWYRQAPGKERELVAAISGSGGSTYYADSVKGRFTISRDNAKNTVYLQMNSLKPEDTEVYYCSYYYWGQGTQETVSS
low polyreactivity
QVQLVESGGGLVQAGGSLRLTCAASGSTFGSYAMGRYRQAPGKERELVAVAISWSGGNTYYADSVKGRFTNSRDNAKNTFYLQMNSLKPEDTAVYYFAAYGTTGVYRGPGYDYWGQGTQVTVSS
low polyreactivity
QLQLVESGRGLVQAGGSLRLRCAASGRTFNRYTMGGYRQAPGKERELVAAISRGAGTNYADSVKGRFTISRDNAKYTVYLQMKSLKPEDTAVYYCAAGYEIGYRTGRSGNTAHIYYWGQGTQVTVSS
high polyreactivity
QDQLVESGGGLVQAGGSLRLSCAASGGTFPEYALGWYRQAPGKERELLAAIRTDGRTYYADSVKGRFTISRDNAKNTVYLQMNSLKPEDTAVYYCAADSRYSRPYTWRKAYDYLGQGTQVTVSS
low polyreactivity
QVQLVESGGGLVQAGGSLRLSCAPSAGTFSPYDMGWSRQSPGKQRELVASITGSGGSTYFADSVKGRFTISRGNAKNTVYLQMNSLKPEDTAVYYCDAQGYWTYWPYLLRLYDYWGQGTQVTVSS
low polyreactivity
QDQRVESGGGIDQAGGSLRLSCAASGSTVDFNAMGWYRQAPGTERELVAAITYSGGSTYYADSVKGRFTISRDNAKNTVYLQMNSLKPQDTAVYYCAAEDVYPGSIDMDYWGQGTQVSVSS
low polyreactivity
QVQLEESGGGLVQAGGSLRLSCAASGSTFGYNAMGWYRQAPGKERELVAAITSGGRTKYADSVKGRFTISRDNAKNTVYLQMNSLKPEDTAVYYCATDQSYRFLFYRAYDMDYWGQGTQVTVSS
high polyreactivity
QVQLVESGGGIVQAGGSLRLICAASGSIFDGYAMGWYRQAPGKERELVAAISASGVRTYYADSVKGRFTISRDNAKNTVYLQMKSLKPEDTAVYYGAAAVYYGQSVWYYYWGQGTQVTVSS
high polyreactivity
QVQLVESGGGVVQAGGSLRLSCAASGITFEYNAMGWYRQAPGKERELVAAISLSSGSTYYADSVKGRFTISRDNAKNTVYLQMNCLKPEDTAVYYCNADWQSYGYLWHSSLYYYWGQGTQVTVSS
low polyreactivity
QVQLVESGGGLVQAGGSLRLSCAASGINFSYYAMGWYRQAPGKERELVAAIRENGGSTYYADSVKGRFTISRDNAKNTVYLQMNSLKPEDTAVYYCAVDTTYYAGYEYDYWGQGTQVTVSS
low polyreactivity
QVQLVESGGGLVQAGGSLRLSCAATGSIFVGYVMGWYRQAAGKERELVAAISRSGGRTYYADSVKGRFTISRDNAKNTVYLQMNSLKPEDTAVYYCAVRHRFYTAGYDYWGQGTQVTVSS
low polyreactivity

Ref: the nanobody polyreactivity screen of Harvey et al. (2022)
